Tested on: Staphylococcus aureus
Assay Overview: microbe, parasite or virus in culture
Assay type: functional
Run Parameters: ATCC 25923, 5 h
Description: Inhibition of cell division in penicillin-susceptible Staphylococcus aureus ATCC 25923 assessed as ballooning after 5 hrs by phase contrast microscopy
The entries below are paired with their reported MIC.
Quantity Measured: MIC

{"Smiles Data": "CCCCNC(=O)/C=C/c1ccc(C#N)cc1", "Assay Value": "> 128 µg/mL"}
{"Smiles Data": "CC(C)NC(=O)/C=C/c1ccc([N+](=O)[O-])cc1", "Assay Value": "> 128 µg/mL"}
{"Smiles Data": "C#CCNC(=O)/C=C/c1ccc([N+](=O)[O-])cc1", "Assay Value": "> 128 µg/mL"}
{"Smiles Data": "CCCNC(=O)/C=C/c1ccc([N+](=O)[O-])cc1", "Assay Value": "> 128 µg/mL"}
{"Smiles Data": "COc1ccc(/C=C/C(=O)n2c(C)nc3ccccc32)cc1", "Assay Value": "> 128 µg/mL"}
{"Smiles Data": "C#CCNC(=O)/C=C/c1ccc(OC)c(OC)c1", "Assay Value": "> 128 µg/mL"}

====

System: Staphylococcus epidermidis
Assay Overview: Antibacterial activity against penicillin-resistant Staphylococcus epidermidis clinical isolates after 24 hrs by broth microdilution method
Type: functional
Parameter: MIC. Scope: all listed entries.
Quantity Measured: MIC

{"Molecule": "O=C(/C=C/c1ccc(Cl)cc1Cl)N1CCN(C(c2ccccc2)c2ccc(Cl)cc2)CC1 (configuration not stated)", "Assayed System": "Staphylococcus epidermidis", "Quantity Measured": "MIC", "Assay Value": "> 128 µg/mL"}
{"Molecule": "O=C(O)c1cn(C2CC2)c2cc(N3CCNCC3)c(F)cc2c1=O [CIPROFLOXACIN]", "Assayed System": "Staphylococcus epidermidis", "Quantity Measured": "MIC", "Assay Value": "> 128 µg/mL"}
{"Molecule": "CC(C)NC(=O)/C=C/c1ccc(Cl)cc1Cl", "Assayed System": "Staphylococcus epidermidis", "Quantity Measured": "MIC", "Assay Value": "> 128 µg/mL"}
{"Molecule": "COc1cc(/C=C/C(=O)N(C)C)cc(OC)c1OC", "Assayed System": "Staphylococcus epidermidis", "Quantity Measured": "MIC", "Assay Value": "> 128 µg/mL"}
{"Molecule": "COc1ccc(/C=C/C(=O)N(C)C)cc1OC", "Assayed System": "Staphylococcus epidermidis", "Quantity Measured": "MIC", "Assay Value": "> 128 µg/mL"}
{"Molecule": "COc1cc(/C=C/C(=O)n2c(C)nc3ccccc32)cc(OC)c1OC", "Assayed System": "Staphylococcus epidermidis", "Quantity Measured": "MIC", "Assay Value": "128 µg/mL"}
{"Molecule": "COc1ccc(/C=C/C(=O)Nc2cccnc2)cc1", "Assayed System": "Staphylococcus epidermidis", "Quantity Measured": "MIC", "Assay Value": "128 µg/mL"}

====

Test system: Escherichia coli
Assay Overview: microbe, parasite or virus in culture
Type: functional
Run Parameters: ATCC 25922, 5 h
Description: Inhibition of cell division in penicillin-susceptible Escherichia coli ATCC 25922 assessed as filamentation after 5 hrs by phase contrast microscopy

{"Compound": "CCCCNC(=O)/C=C/c1ccc(Cl)cc1Cl [N-BUTYL-3-(2,4-DICHLOROPHENYL)ACRYLAMIDE]", "MIC": "> 128 µg/mL"}
{"Compound": "O=C(O)/C=C/c1ccccc1 [CINNAMIC ACID]", "MIC": "> 128 µg/mL"}
{"Compound": "O=C(/C=C/c1ccccc1Cl)N1CCN(C(c2ccccc2)c2ccc(Cl)cc2)CC1 (stereo not drawn)", "MIC": "> 128 µg/mL"}

Data provenance: ChEMBL document CHEMBL3421607
